Each entry below carries its recorded F-VIII 120' (c).
System: Factor VIII
Experiment: Factor VIII classical clotting assay (F-VIII(C)) on blood of dogs after intravenous injection
Type: in vivo
Settings: dog, i.v., 10 μg/kg, 120 minutes; pre-injection blood = 100%
Where a SMILES comes first, the peptide text is derived from it. Bridges are numbered along the chain shown (N, C = ends). [ ]: non-standard residue; d: D form. Mpa = O=C(O)CCS

molecule | test-target | F-VIII 120' (c), %
C[C@@H](NC(=O)[C@H](CCCNC(=N)N)NC(=O)[C@@H]1CCCN1C(=O)[C@@H]1CSSC[C@H](N)C(=O)N[C@@H](Cc2ccc(O)cc2)C(=O)N[C@@H](Cc2ccccc2)C(=O)N[C@@H](CCC(N)=O)C(=O)N[C@@H](CC(N)=O)C(=O)N1)C(N)=O [Example 5, ([9-D-Ala-NH2]-arginine-vasopressin] | Factor VIII | 115
NC(=O)CC[C@@H]1NC(=O)[C@H](Cc2ccccc2)NC(=O)[C@H](Cc2ccc(O)cc2)NC(=O)CCSSC[C@@H](C(=O)N2CCC[C@H]2C(=O)N[C@H](CCCN=C(N)N)C(=O)NCC(N)=O)NC(=O)[C@H](CC(N)=O)NC1=O [Desmopressin, 1-desamino-[8-D-ARG]-vasopressin, reference compound] | Factor VIII | 210
C[C@@H](NC(=O)[C@H](CCCNC(=N)N)NC(=O)[C@@H]1CCCN1C(=O)[C@@H]1CSSCCC(=O)N[C@@H](Cc2ccc(O)cc2)C(=O)N[C@@H](Cc2ccccc2)C(=O)N[C@@H](CCC(N)=O)C(=O)N[C@@H](CC(N)=O)C(=O)N1)C(N)=O [Example 4] ([Mpa]YFQNCPR[dA]-NH2; disulfide 1-6) | Factor VIII | 240
C[C@H](NC(=O)[C@@H](CCCNC(=N)N)NC(=O)[C@@H]1CCCN1C(=O)[C@@H]1CSSCCC(=O)N[C@@H](Cc2ccc(O)cc2)C(=O)N[C@@H](Cc2ccccc2)C(=O)N[C@@H](CCC(N)=O)C(=O)N[C@@H](CC(N)=O)C(=O)N1)C(N)=O [Example 8] ([Mpa]YFQNCP[dR]A-NH2; disulfide 1-6) | Factor VIII | 140

====

Tested on: Factor VIII
Test: Factor VIII radioimmunoassay (F-VIII(RIA)) on blood of dogs after intravenous injection
Assay type: in vivo
Details: dog, i.v., 10 μg/kg, 120 minutes
Where a SMILES comes first, the peptide text is derived from it. Bridges are numbered along the chain shown (N, C = ends). [ ]: non-standard residue; d: D form. Mpa = O=C(O)CCS
property-label: F-VIII 120' (RIA) (%)

molecule | units-label | measured-value
C[C@@H](NC(=O)[C@H](CCCNC(=N)N)NC(=O)[C@@H]1CCCN1C(=O)[C@@H]1CSSC[C@H](N)C(=O)N[C@@H](Cc2ccc(O)cc2)C(=O)N[C@@H](Cc2ccccc2)C(=O)N[C@@H](CCC(N)=O)C(=O)N[C@@H](CC(N)=O)C(=O)N1)C(N)=O [Example 5, ([9-D-Ala-NH2]-arginine-vasopressin] | % | 115
C[C@H](NC(=O)[C@@H](CCCNC(=N)N)NC(=O)[C@@H]1CCCN1C(=O)[C@@H]1CSSCCC(=O)N[C@@H](Cc2ccc(O)cc2)C(=O)N[C@@H](Cc2ccccc2)C(=O)N[C@@H](CCC(N)=O)C(=O)N[C@@H](CC(N)=O)C(=O)N1)C(N)=O [Example 8] ([Mpa]YFQNCP[dR]A-NH2; disulfide 1-6) | % | 155
C[C@@H](NC(=O)[C@H](CCCNC(=N)N)NC(=O)[C@@H]1CCCN1C(=O)[C@@H]1CSSCCC(=O)N[C@@H](Cc2ccc(O)cc2)C(=O)N[C@@H](Cc2ccccc2)C(=O)N[C@@H](CCC(N)=O)C(=O)N[C@@H](CC(N)=O)C(=O)N1)C(N)=O [Example 4] ([Mpa]YFQNCPR[dA]-NH2; disulfide 1-6) | % | 163
NC(=O)CC[C@@H]1NC(=O)[C@H](Cc2ccccc2)NC(=O)[C@H](Cc2ccc(O)cc2)NC(=O)CCSSC[C@@H](C(=O)N2CCC[C@H]2C(=O)N[C@H](CCCN=C(N)N)C(=O)NCC(N)=O)NC(=O)[C@H](CC(N)=O)NC1=O [Desmopressin, 1-desamino-[8-D-ARG]-vasopressin, reference compound] | % | 164

====

System: Factor VIII
Test: Factor VIII classical clotting assay (F-VIII(C)) on blood of dogs after intravenous injection
Assay type: in vivo
Details: dog, i.v., 10 μg/kg, 60 minutes; pre-injection blood = 100%
Where a SMILES comes first, the peptide text is derived from it. Bridges are numbered along the chain shown (N, C = ends). [ ]: non-standard residue; d: D form. Mpa = O=C(O)CCS
property-label: F-VIII 60' (c) (%)

compound | measured-value
NC(=O)CC[C@@H]1NC(=O)[C@H](Cc2ccccc2)NC(=O)[C@H](Cc2ccc(O)cc2)NC(=O)CCSSC[C@@H](C(=O)N2CCC[C@H]2C(=O)N[C@H](CCCN=C(N)N)C(=O)NCC(N)=O)NC(=O)[C@H](CC(N)=O)NC1=O [Desmopressin, 1-desamino-[8-D-ARG]-vasopressin, reference compound] | 250
C[C@@H](NC(=O)[C@H](CCCNC(=N)N)NC(=O)[C@@H]1CCCN1C(=O)[C@@H]1CSSCCC(=O)N[C@@H](Cc2ccc(O)cc2)C(=O)N[C@@H](Cc2ccccc2)C(=O)N[C@@H](CCC(N)=O)C(=O)N[C@@H](CC(N)=O)C(=O)N1)C(N)=O [Example 4] ([Mpa]YFQNCPR[dA]-NH2; disulfide 1-6) | 250
C[C@H](NC(=O)[C@@H](CCCNC(=N)N)NC(=O)[C@@H]1CCCN1C(=O)[C@@H]1CSSCCC(=O)N[C@@H](Cc2ccc(O)cc2)C(=O)N[C@@H](Cc2ccccc2)C(=O)N[C@@H](CCC(N)=O)C(=O)N[C@@H](CC(N)=O)C(=O)N1)C(N)=O [Example 8] ([Mpa]YFQNCP[dR]A-NH2; disulfide 1-6) | 150
C[C@@H](NC(=O)[C@H](CCCNC(=N)N)NC(=O)[C@@H]1CCCN1C(=O)[C@@H]1CSSC[C@H](N)C(=O)N[C@@H](Cc2ccc(O)cc2)C(=O)N[C@@H](Cc2ccccc2)C(=O)N[C@@H](CCC(N)=O)C(=O)N[C@@H](CC(N)=O)C(=O)N1)C(N)=O [Example 5, ([9-D-Ala-NH2]-arginine-vasopressin] | 128
